Here, compounds appear alongside IC50 reported for Amine oxidase [flavin-containing] B (Homo sapiens) in the literature.

Field: example entries. Status: answers known.
{"columns": ["compound", "assayed system", "observation type", "result"],
 "data": [
  ["O=C1/C(=C/c2ccccc2O)Oc2cc(O)ccc21", "Amine oxidase [flavin-containing] B (Homo sapiens)", "IC50", "> 10 µM"],
  ["O=c1cc(-c2ccccc2)oc2cc(Cl)c(Cl)cc12", "Amine oxidase [flavin-containing] B (Homo sapiens)", "IC50", "> 800 µM"],
  ["COc1ccc(-c2oc3cc(O)cc(O)c3c(=O)c2O)cc1", "Amine oxidase [flavin-containing] B (Homo sapiens)", "IC50", "> 100 µM"],
  ["CCN1CCN(C(=S)SCC(=O)Nc2ccc(C(=O)/C=C/c3cccc(F)c3)cc2)CC1", "Amine oxidase [flavin-containing] B (Homo sapiens)", "IC50", "> 20 µM"],
  ["O=c1c(-c2ccc(O)cc2)coc2cc(O[C@@H]3O[C@H](CO)[C@@H](O)[C@H](O)[C@H]3O)cc(O)c12", "Amine oxidase [flavin-containing] B (Homo sapiens)", "IC50", "> 400 µM"]
]}

Amine oxidase [flavin-containing] B (Homo sapiens) assay, compound O=C(CCl)Nc1ccc(C(=O)/C=C/c2ccc(F)cc2)cc1 , recorded IC50 = > 20 µM

Amine oxidase [flavin-containing] B (Homo sapiens) assay, compound O=C1/C(=C/c2cc(O)c(O)c(O)c2)Oc2cc(O)ccc21 , recorded IC50 = > 10 µM

Amine oxidase [flavin-containing] B (Homo sapiens) assay, compound O=C1/C(=C/c2cccc(O)c2)Oc2cc(O)ccc21 , recorded IC50 = > 10 µM

Amine oxidase [flavin-containing] B (Homo sapiens) assay, compound COc1cc(/C=C2\Oc3cc(O)ccc3C2=O)cc(OC)c1 , recorded IC50 = > 10 µM

Amine oxidase [flavin-containing] B (Homo sapiens) assay, compound CC1OC(OCC2OC(Oc3c(-c4ccc(O)cc4)oc4cc(O)cc(O)c4c3=O)C(O)C(O)C2O)C(O)C(O)C1O (centres unmarked) , recorded IC50 = > 400 µM

Amine oxidase [flavin-containing] B (Homo sapiens) assay, compound CCN1CCN(C(=S)SCC(=O)Nc2ccc(C(=O)/C=C/c3ccccc3)cc2)CC1 , recorded IC50 = > 20 µM
